Reported aggregation suppression score by item:
Experiment: suppressors of polyglutamine aggregation in yeast, 75Q-TubH (AID 1616)
Conditions: S. cerevisiae 75Q-TubH polyglutamine aggregation suppression; stronger effect = higher value
reported property: aggregation suppression score

INSERT INTO assay_data (molecule, result_number) VALUES
  ('CN1C(=O)CN=C(c2ccccc2F)c2cc([N+](=O)[O-])ccc21', 0.965),
  ('CCCCC[C@H]1C(=O)O[C@H](C)[C@H](NC(=O)c2cccc(NC=O)c2O)C(=O)O[C@@H](C)[C@@H]1OC(=O)CC(C)C', 0.0257),
  ('CCOC(=O)C1(c2ccccc2)CCN(C)CC1', 1.14),
  ('Oc1cccc2cccnc12', 0.00802),
  ('CC(=O)O[C@H]1C[C@H](O[C@H]2[C@@H](O)C[C@H](O[C@H]3[C@@H](O)C[C@H](O[C@H]4CC[C@@]5(C)C(CCC6C5C[C@@H](O)[C@]5(C)[C@@H](C7=CC(=O)OC7)CC[C@]65O)C4)O[C@@H]3C)O[C@@H]2C)O[C@H](C)[C@H]1O[C@@H]1O[C@H](CO)[C@@H](O)[C@H](O)[C@H]1O (some centres not stated)', 1.31),
  ('C#CC1(O)CCC2C3CCC4=CC(=O)CCC4(C)C3CCC21C (configuration not stated)', 1.19),
  ('O=C(O)CCCc1ccc(N(CCCl)CCCl)cc1', 0.0151),
  ('CCN1C[C@@]2(COC)C3[C@@H](OC)[C@H]4[C@@H]1[C@]3(C(OC)C[C@H]2O)C1C[C@@]2(O)[C@H](OC(=O)c3ccccc3)C1[C@]4(OC(C)=O)[C@@H](O)[C@@H]2OC (some centres not stated)', 1.1),
  ('FC(F)(F)c1cccc(N2CCNCC2)c1', 1.16),
  ('CN(C)[C@@H]1C(=O)C(C(N)=O)=C(O)[C@@]2(O)C(=O)C3=C(O)c4c(O)cccc4[C@@](C)(O)[C@H]3[C@H](O)[C@@H]12', 0.502),
  ('NCC(CC(=O)O)c1ccc(Cl)cc1 (configuration not stated)', 1.13),
  ('COc1ccc2c3c([nH]c2c1)C(C)=NCC3', 0.883),
  ('CC1[C@H](C)OC(=O)CC(O)CC(O)CC(O)CCC(O)C(O)C[C@]2(O)CC(O)C(C(=O)O)C(CC(OC3O[C@H](C)[C@@H](O)[C@H](N)[C@@H]3O)/C=C/C=C/C=C/C=C/CC/C=C/C=C/[C@H](C)[C@H]1O)O2 (some centres not stated)', 0.00787),
  ('CC(=O)OC1CN2CCC1CC2 (configuration not stated)', 1.12),
  ('C[C@]12CCC3C(CC[C@]4(O)C[C@@H](O)CC[C@]34C=O)[C@@]1(O)CCC2C1=CC(=O)OC1 (some centres not stated)', 1.29),
  ('CN1CCc2cc3c(cc2C1O)OCO3 (configuration not stated)', 1.11),
  ('C[C@@H]1CC[C@H]2[C@@H](C)C(=O)O[C@@H]3OC4(C)CC[C@@H]1[C@]32OO4', 0.15);

====

Assay: stimulators of nuclear beta-catenin in C2C12, primary screen, imaging, WNT3A-conditioned medium, mouse C2C12, NPC library (AID 1117326); note: reference of the scale not given here
Conditions: stimulation, at 2 µM, stronger effect = higher value
reported property: nuclear beta-catenin stimulation

INSERT INTO assay_data (compound, result) VALUES
  ('CN(C)CCc1ccc(O)cc1', '1.5%'),
  ('COc1cccc2c1C(=O)c1c(O)c3c(c(O)c1C2=O)C[C@@](O)(C(=O)CO)CC3OC1CC(N2CCOC(OC)C2)C(O)C(C)O1 (some centres undefined)', '47.6%'),
  ('CCCCCCCCCCCC[N+](C)(C)CCOc1ccccc1', '0.6%'),
  ('COc1cccc([C@@]2(O)CCCC[C@@H]2CN(C)C)c1', '1.4%'),
  ('NCC(CC(=O)O)c1ccc(Cl)cc1 (centres undefined)', '0.7%'),
  ('C[C@H]1CNCCc2ccc(Cl)cc21', '0.8%'),
  ('COc1ccc2c(c1OC)C(=O)O[C@H]2[C@@H]1c2cc3c(cc2CCN1C)OCO3', '7.9%'),
  ('CC(C)(C)OC(=O)c1ncn2c1[C@@H]1CCCN1C(=O)c1c(Br)cccc1-2', '2.4%'),
  ('CCN(CC)CCOC(=O)C(O)(c1ccccc1)c1ccccc1', '-1.2%'),
  ('NCCc1cc(O)c(O)cc1O', '2.4%'),
  ('CCC(=O)O[C@@H]1C=C2CCC3C(CCC4(C)C3CC[C@@H]4OC(=O)CC)C2CC1 (some centres undefined)', '1.3%'),
  ('CCOC(=O)NC(O)C(Cl)(Cl)Cl (centres undefined)', '2.2%'),
  ('CC[C@@H](CO)NC(=O)[C@@H]1C=C2c3cccc4c3c(cn4C)C[C@H]2N(C)C1', '1.1%'),
  ('CC(Cc1ccc2c(c1)OCO2)NCC(O)c1ccc(O)c(O)c1 (centres undefined)', '-0.2%'),
  ('CC(C(O)c1ccccc1)N(C)C/C=C/c1ccccc1 (centres undefined)', '3.1%'),
  ('O=c1oc2ccccc2c(O)c1Cc1c(O)c2ccccc2oc1=O', '-2.5%'),
  ('CNC(=O)Oc1cccc2ccccc12', '0.4%'),
  ('Nc1ccc(Cl)cc1C(=O)c1ccccc1F', '4.2%'),
  ('Oc1ccc(Cl)cc1Cc1ccccc1', '0.1%'),
  ('CC(C)[N+](C)(CCC(C(N)=O)(c1ccccc1)c1ccccc1)C(C)C', '-0.3%'),
  ('O=C(CCCCl)c1ccc(F)cc1', '-0.7%'),
  ('Oc1ccccc1-c1ccccc1', '-0.1%'),
  ('C[C@]12CC[C@H]3[C@@H](CCC4=CC(=O)CC[C@@H]43)[C@@H]1CC[C@@H]2OC(=O)CCc1ccco1', '1%'),
  ('C[C@]12CC[C@H]3[C@@H](CCC4=CC(=O)CC[C@@]43C)[C@@H]1CC[C@@H]2C(=O)O', '0.3%');
